assayDetails: octanol/water partition coefficient
Format: physicochemical
runParameters: Octanol/Wasser, read-out: log P (Verteilungskoeffizient Octanol/Wasser)
measuredMetric: logP

> print(dat)
                                    compound  recordedmeasurement
 1  O=C1N=C(N2CCCCC2)CN1c1ccc(Cl)cc1 [Verbindung 3]                 2.29
 2  CN1CCN(C2=NC(=O)N(c3ccc(Cl)cc3)C2)CC1 [Verbindung 5]                 2.17
 3  O=C1N=C(N2CCCCCC2)CN1c1ccc(Cl)cc1 [Verbindung 11]                 2.56
 4  O=C1N=C(N2CCOCC2)CN1c1ccc(Br)cc1 [Verbindung 8]                 1.45
 5  O=C1N=C(N2CCOCC2)CN1Cc1ccccc1 [Verbindung 4]                 0.48
 6  O=C1N=C(N2CCOCC2)CN1c1ccc(F)cc1 [Verbindung 9]                 0.97
 7  COc1ccc(N2CC(N3CCCCC3)=NC2=O)cc1 [Verbindung 7]                 1.53
 8  O=C1N=C(N2CCOCC2)CN1c1cccc(Cl)c1 [Verbindung 10]                 1.28
 9  O=C1N=C(N2CCOCC2)CN1c1ccccc1 [Verbindung 1]                 0.64
10  O=C1N=C(N2CCOCC2)CN1c1ccc(Cl)cc1 [Verbindung 2]                 1.48
11  CN(C)C1=NC(=O)N(c2ccc(Cl)cc2)C1 [Verbindung 6]                 1.61
